I'd be grateful if you could share measured IC50 for these entries.
# Test system: Radical scavenging activity
# TEST PROTOCOL: DPPH radical scavenging activity in ethanol solution
# Assay type: functional
# CONDITION LABEL: read-out: IC50
Hi! Could you send only the number? It should be in µM, unit omitted.

Under Radical scavenging activity: report IC50 of O=C(O)c1cc(O)c(O)c(O)c1 [GALLIC ACID] .
6

Under Radical scavenging activity: report IC50 of COc1cc(C(=O)O)cc(OC)c1O [SYRINGIC ACID] .
7.3

Under Radical scavenging activity: report IC50 of COC(=O)c1cc(O)c(O)c(O)c1 [GALLIC ACID METHYL ESTER] .
7.2
